assayed_system: rat CB2 receptor (rCB2) (Rattus norvegicus)
Sequence (Q9QZN9 whole entry): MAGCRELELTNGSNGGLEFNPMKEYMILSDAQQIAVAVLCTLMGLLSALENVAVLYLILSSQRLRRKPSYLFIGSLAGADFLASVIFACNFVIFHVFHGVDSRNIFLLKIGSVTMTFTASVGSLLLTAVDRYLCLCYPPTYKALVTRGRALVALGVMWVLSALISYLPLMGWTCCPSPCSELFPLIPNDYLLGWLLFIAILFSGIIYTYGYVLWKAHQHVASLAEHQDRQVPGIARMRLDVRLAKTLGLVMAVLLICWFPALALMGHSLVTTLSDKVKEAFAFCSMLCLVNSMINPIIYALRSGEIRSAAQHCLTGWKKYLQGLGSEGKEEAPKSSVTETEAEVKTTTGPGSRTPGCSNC
protocol_summary: cell-based
Type: cell-based
condition_summary: agonist or inverse agonist at rCB2
measure_name: +/− RCB2

1. CNC(=O)[C@@H](NC(=O)c1nc(-c2ccccc2)n2c1CN(S(=O)(=O)c1ccc(F)cc1)CCC2)C(C)(C)C ... −
2. CNC(=O)[C@@H](NC(=O)c1nc(-c2ccccc2)n2c1CN(Cc1cncnc1)CC2)C(C)(C)C ... −
3. CC(=O)N1CCn2c(-c3ccccc3)nc(C(=O)N[C@H](C)C3CCCCC3)c2C1 ... −
4. CCCc1nc(C(=O)N[C@H](C(=O)NC)C(C)(C)C)c2n1CCN(C)C2 ... +
